# test.target: T1, recombinant human IL-23R/Fc chimera (R&D Systems) (human, UniProt Q5VWK5 24-355)
# T1 construct: Bought; also called rhIL23RFc
# T1 sequence (looked up): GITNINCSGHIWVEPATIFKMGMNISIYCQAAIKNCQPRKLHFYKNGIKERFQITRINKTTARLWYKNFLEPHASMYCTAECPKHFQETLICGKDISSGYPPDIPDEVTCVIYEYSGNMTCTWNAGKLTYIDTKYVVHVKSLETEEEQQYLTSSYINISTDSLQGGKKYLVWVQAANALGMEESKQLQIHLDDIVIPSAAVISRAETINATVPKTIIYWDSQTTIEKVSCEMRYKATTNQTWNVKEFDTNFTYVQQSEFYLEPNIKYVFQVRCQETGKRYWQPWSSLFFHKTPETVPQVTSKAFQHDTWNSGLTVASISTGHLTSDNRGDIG
# protocol.description: SPR
measure.name: Ka
Remember to follow the number with its unit.

Task: Endpoint output: Ka of 105-20-1B3 ATRIMER complex (designed binder) EPPTQKPKKIVNAKKDVVNTKMFEELKSRLDTLAQEVALLKEQQALQTVCLKGTKVHMKCFLAFTQTKTFHEASEDCISRGGTLSTPQTGSENDALYEYLRQSVGNEAEIWLGLNGSALTNTWVDMTGARIAYKNWETEITAQPDGGFGYFGENCAVLSGAANGKWFDKRCRDQLPYICQFGIV . Value?
Result: 1.31e+09 M⁻¹

Task: Endpoint output: Ka of 001-69.4G8 monomeric CTLD (designed binder, C-terminal tag not specified; not shown: C-terminal tag: 6xHis (pANA1), HA-His (pANA3) or HA-StrepII (pANA12)) ALQTVCLKGTKVHMKCFLAFTQTKTFHEASEDCISRGGTLSTPQTGSENDALYEYLRQSVGNEAEIWLGLNGSRRSGVWVDMTGARIAYKNWETEITAQPDGGFGVFGENCAVLSGAANGKWFDKRCRDQLPYICQFGIV . Value?
Result: 1.83e+07 M⁻¹
